# ASSAY PROCEDURE: qHTS of pediatric cancer cell lines to identify multiple opportunities for drug repurposing: Primary screen for SJ-GBM2 cells (AID 1347091)
# CONDITION DETAILS: SJ-GBM2 viability, CellTiter-Glo luminescence, 48 h; series mostly up to 46 µM
# Description: Drug repurposing or repositioning has been offered as a strategy for drug development in oncology programs. […] [1] Shen, M et al. Quantitative high-throughput phenotypic screening of pediatric cancer cell lines identifies multiple opportunities for drug repurposing. […] Cells were assayed in growth media at a density of 500-1,000 cells/well. […] After a 15 min incubation at room temperature, samples were analyzed for luminescence intensity using a ViewLux High-throughput CCD imager equipped with clear filters.
Records with an inconclusive call do not appear. The source made the active and inactive calls. The call rests on the fitted dose curve; in most records, active means well fitted cell-killing curve with a large enough effect; inconclusive means small, poorly fitted or top-dose-only effect; inactive means no such curve, though single readings can be large or run the other way.
Answer with one of the outcomes active, inactive

Record excerpt, results attached:
>>> label("CC1(C)OC2CC3C4CC(F)C5=CC(=O)C=CC5(C)C4C(O)CC3(C)[C@]2(C(=O)CO)O1 (stereo not given in full)")
"inactive"
>>> label("CN1c2ccccc2C(=O)N2CCc3c([nH]c4ccccc34)C21 (stereo not given)")
"inactive"
>>> label("COc1cc(N2CCN(C)CC2)ccc1Nc1nc(N)c(C(=O)c2c(Cl)cccc2Cl)s1")
"inactive"
>>> label("CC(C)C[C@@H](C(=O)N[C@H](C(=O)OC1CCCC1)c1ccccc1)[C@H](O)C(=O)NO")
"active"

Pending compound:
Please indicate how the test categorized COc1ccc(C=CC(=O)Nc2ccccc2C(=O)O)cc1OC .
inactive

---

Listed next: entries and their corresponding Potency.
# ASSAY PROCEDURE: Quantitative High-Throughput drug screen in 47 multiple myeloma cell lines against the NCATS MIPE library collection: XG1_PLB cell viability assay (AID 1919866); further: potency means the concentration at half of the fitted maximal effect; nearly all actives have a fitted effect of over 35% in size
# CONDITION DETAILS: CellTiter-Glo ATP, 48 h; series mostly up to 45.8 µM
Results filed as inconclusive are left out. Active and inactive are the calls of the source. Calls come from the whole dose curve; as a rule, active = well fitted cell-killing curve with a large enough effect; inconclusive = small, poorly fitted or top-dose-only effect, or effect the other way; inactive = no such curve, though single readings can be large or run the other way.

# count of solved cases: 3
>>> result("CN1CC(=O)NC1=NC(=O)Nc1cccc(Cl)c1")
"29.6 µM (active)"
>>> result("CCOC(=O)N1CCN([N+]([O-])=NOc2cc(ON=[N+]([O-])N3CCN(C(=O)OCC)CC3)c([N+](=O)[O-])cc2[N+](=O)[O-])CC1")
"4.18 µM (active)"
>>> result("O=C(Nc1ncc(SCCN2CCCC2)s1)[C@]1(c2ccc(S(=O)(=O)C3CC3)cc2)C[C@@H]1C1CCCCC1")
"8.33 µM (active)"

Check the records and state Potency for CCCCN(CCCC)CC(O)c1cc(Cl)cc2c1-c1ccc(Cl)cc1C2=Cc1ccc(Cl)cc1 (stereo unspecified)
23.5 µM (active)

Please report Potency for the following molecule: CC(=O)N1CCN(c2ccc(OCc3nn(C)c(C)c3-c3cccc4c(CCCOc5cc(C)c(Cl)c(C)c5)c(C(=O)O)n(Cc5cccnc5)c34)cc2)CC1
5.9 µM (active)

Look up and report measured Potency for this entry: CC(C)CNc1ccnc(NCc2csc(-c3ccccc3)n2)n1
16.6 µM (active)

---

# ASSAY PROCEDURE: Quantitative High-Throughput drug screen in 47 multiple myeloma cell lines against the NCATS MIPE library collection: MMM1_PLB cell viability assay (AID 1918976); further: potency means the concentration at half of the fitted maximal effect; nearly all actives have a fitted effect of over 35% in size
# CONDITION DETAILS: MMM1 myeloma cells viability, CellTiter-Glo, 48 h; series mostly up to 45.8 µM
# Description: PI: Beverly A. Mock Ph.D. Laboratory of Cancer Biology and Genetics, Center for Cancer Research, National Cancer Institute, National Institute of Health, Bethesda, Maryland […] 5; Detector; 425V; Luminescence; Viewlux PerkinElmer. […] 1. […] Briefly, the corresponding myeloma cell lines were screened in 1,536-well plates with 500 cells, 5-uL per well for inhibition of cell viability (assessed by measuring ATP levels with CellTiterGlo). […]
Results filed as inconclusive are left out. Calls of active or inactive are those of the source. Calls come from the whole dose curve; as a rule, active = well fitted cell-killing curve with a large enough effect; inconclusive = small, poorly fitted or top-dose-only effect, or effect the other way; inactive = no such curve, though single readings can be large or run the other way.
Documented Potency across a set of compounds

>>> result("CCC(C)SSc1ncc[nH]1 (stereo not given)")
"7.43 µM (active)"
>>> result("COC(=O)Nc1ccc(-c2nc(N3CCOCC3)c3cnn(C4CCN(C(=O)OC)CC4)c3n2)cc1")
"0.418 µM (active)"
>>> result("COc1c(C)c2c(c(O)c1CC=C(C)CCC(=O)O)C(=O)OC2")
"1.18 µM (active)"
>>> result("COc1cc2c(cc1OC)[C@@H]1Cc3ccc(OC)c(OC)c3CN1CC2")
"16.6 µM (active)"
>>> result("NC(=O)c1noc([C@H](CCCC2CCCCC2)CC(=O)NO)n1")
"16.6 µM (active)"
>>> result("Cc1ccc(C(=O)N(CCCN)[C@@H](c2oc3cc(Cl)ccc3c(=O)c2Cc2ccccc2)C(C)C)cc1")
"23.5 µM (active)"
>>> result("Cn1cc(-c2ccc3nnc(Sc4ccc5ncccc5c4)n3n2)cn1")
"16.6 µM (active)"
>>> result("NC1(C(=O)N[C@@H](CCO)c2ccc(Cl)cc2)CCN(c2ncnc3[nH]ccc23)CC1")
"0.0105 µM (active)"

Read the next record carefully.
Specify reported Potency for the compound shown: CN(C)S(=O)(=O)c1ccc2c(c1)C(=Cc1cc3c([nH]1)CCCC3)C(=O)N2
18.7 µM (active)
